assayComment: ATG_ISRE_CIS: Attagene CIS-FACTORIAL HepG2 Assay for human Interferon Regulatory Factor 1 (IRF1) binding to an Interferon-Stimulated Response Element (ISRE) (AID 2282948)
settings: HepG2 ISRE cis-reporter (Attagene), mRNA transcription readout; actives raise or lower the signal
Method: ATG_CIS is a cell-based, multiplexed-readout assay that uses HepG2, a human liver cell line, with measurements taken at 24 hours after chemical dosing in a 24-well plate.ATG_ISRE_CIS is one of 52 assay component(s) measured or calculated from the ATG_CIS assay. […] This assay endpoint, ATG_ISRE_CIS, was analyzed with bidirectional fitting relative to DMSO as the negative control and baseline of activity. […]
The source made the active and inactive calls. Rule for the calls: active = hit-call score of the fitted dose curve at least 0.9, where 1 is the maximum; inactive = score below 0.9.
Outcomes you can answer with include only these: YES = active, NO = inactive

Task item: What did this assay record as the result for `O=C(Nc1ccc(Cl)c(Cl)c1)c1cc(Cl)cc(Cl)c1O` ?
Reply: YES

Task item: # iterate: `O=CC(F)(F)C(F)(F)C(F)(F)C(F)F`
Reply: NO

Task item: # iterate: `Cc1[nH]nc2c1N=C(c1ccccc1Cl)c1cc([N+](=O)[O-])ccc1N2`
Reply: YES

Task item: # iterate: `CCCCCCCCCCCCCCC`
Reply: NO

Continuing:
Task item: What did this assay record as the result for `N=C(N)c1ccc(OCCCCCOc2ccc(C(=N)N)cc2)cc1` ?
Reply: YES

Task item: # iterate: `C[C@]12CC[C@@H]3c4ccc(O)cc4CC[C@H]3[C@@H]1C[C@@H](O)[C@@H]2O`
Reply: NO

Task item: # iterate: `O=P(O)(O)CCC(F)(F)C(F)(F)C(F)(F)C(F)(F)C(F)(F)C(F)(F)F`
Reply: NO

Task item: # iterate: `c1cc2cccc3c4cccc5cccc(c(c1)c23)c54`
Reply: NO

Task item: # iterate: `C=CC(=O)OCCC(F)(F)C(F)(F)C(F)(F)C(F)(F)C(F)(F)C(F)(F)C(F)(F)C(F)(F)F`
Reply: NO

Task item: # iterate: COCC1CCC(CO)CC1 (configuration not stated)
Reply: NO

Task item: # iterate: `O=C(F)C(F)(F)C(F)(F)C(F)(F)C(F)F`
Reply: NO

Task item: # iterate: `CCCCCCCCCCCCCCCC(=O)OC`
Reply: NO

Task item: # iterate: `O=C(O)c1cccc(C(=O)O)n1`
Reply: NO

Task item: # iterate: `CN(C)CCOC(c1ccccc1)c1ccccc1`
Reply: YES

Task item: # iterate: `CCO[Si](C)(C)OCC`
Reply: NO

Task item: # iterate: `CCOCCOCC`
Reply: NO

Task item: # iterate: `NCCN`
Reply: NO
